MEASURED TARGET: T1, HLA-DRB4 molecule (DRB4*0101) (human)
T1 construct: HLA class II heterodimer
ASSAY EXPLANATION: competitive ELISA, tracer E2/E168
pIC50: −log10 of the molar value.
Assign class by pIC50: not lower than 5 means label 1; lower than 5 means label 0.

> print(dat)
                                      binder  label.class
 1  AKKVRRAIEQLAAMD (synthetic 15-mer) [survivin peptide 128-142]      label 1
 2  QPFLKDHRISTFKNW (synthetic 15-mer) [survivin peptide 11-25]      label 0
 3  GEFLKLDRERAKNKI (synthetic 15-mer) [survivin peptide 99-113]      label 0
 4  AGFIHCPTENEPDLA (synthetic 15-mer) [survivin peptide 41-55]      label 1
 5  ISTFKNWPFLEGCAC (synthetic 15-mer) [survivin peptide 19-33]      label 1
 6  PAWQPFLKDHRISTF (synthetic 15-mer) [survivin peptide 8-22]      label 0
 7  STFKNWPFLEGCACT (synthetic 15-mer) [survivin peptide 20-34]      label 1
 8  LTLGEFLKLDRERAK (synthetic 15-mer) [survivin peptide 96-110]      label 1
 9  CAFLSVKKQFEELTL (synthetic 15-mer) [survivin peptide 84-98]      label 1
10  ERMAEAGFIHCPTEN (synthetic 15-mer) [survivin peptide 36-50]      label 0
